# System: L132 (Lung) tumor cells
# Assay details: MTT cytotoxicity assay, L132 cells
# Type: cell-based
# Test context: 1 nM, 48 hours
* marks the point of attachment. Palmitoyl = CCCCCCCCCCCCCCCC(=O)*; Octanoyl = CCCCCCCC(=O)*; Butyryl = CCCC(=O)*
Measured property: Percentage cytotoxicity (%)
Numbers only, in %.

| Substance | Test system | Measured property | Reading |
| --- | --- | --- | --- |
| Palmitoyl-Leu-Met-Tyr-Pro-Thr-Tyr-Leu-Lys-OH (Palmitoyl-LMYPTYLK-OH) [DT-P1] | L132 (Lung) tumor cells | Percentage cytotoxicity | 10.9 |
| n-Octanoyl-Leu-Met-Tyr-Pro-Thr-Tyr-Leu-Lys-OH (Octanoyl-LMYPTYLK-OH) [DT-O1] | L132 (Lung) tumor cells | Percentage cytotoxicity | 19.4 |
| Ac-LMYPTYLK-OH [DT-A1] | L132 (Lung) tumor cells | Percentage cytotoxicity | 13.9 |

Now look at this entry.
[ask] Fill in Percentage cytotoxicity for record n-Butanoyl-Leu-Met-Tyr-Pro-Thr-Tyr-Leu-Lys-OH (Butyryl-LMYPTYLK-OH) [DT-B1]
[reply] 13.9
